# measured.target: human recombinant aldose reductase (Homo sapiens)
# assay.explanation: biochemical
pIC50: −log10 of the molar value.
observation.type: pIC50

structure.smiles	measured.result
O=C(O)Cc1nn(Cc2nc3cc(C(F)(F)F)ccc3s2)c(=O)c2nccnc12	10.54
